What log10 of Ka was measured for each of the following?
Target: RXRα (UniProt P28700)
Sequence: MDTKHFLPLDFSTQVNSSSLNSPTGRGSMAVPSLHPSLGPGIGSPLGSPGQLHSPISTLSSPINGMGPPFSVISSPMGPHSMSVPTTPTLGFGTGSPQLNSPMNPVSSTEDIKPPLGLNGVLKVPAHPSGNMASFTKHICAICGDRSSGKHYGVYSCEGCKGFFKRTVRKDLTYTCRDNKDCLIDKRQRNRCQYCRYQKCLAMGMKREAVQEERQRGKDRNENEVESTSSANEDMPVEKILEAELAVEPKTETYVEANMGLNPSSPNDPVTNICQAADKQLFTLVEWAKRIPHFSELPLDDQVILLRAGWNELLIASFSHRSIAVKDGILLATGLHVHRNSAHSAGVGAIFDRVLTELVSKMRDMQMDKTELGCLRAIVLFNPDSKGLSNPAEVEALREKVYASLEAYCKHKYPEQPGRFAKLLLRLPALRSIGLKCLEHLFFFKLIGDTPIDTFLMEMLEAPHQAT
Assay: MITOMI
Settings: On-chip MITOMI, 1 h equilibration; buffer, salt, pH and temperature not in the material (as ref. 23)
Note the log scale: values are log10 of Ka expressed in M⁻¹.

The examples below pair each entry with its known result.
AAACTAGGTCAAAGGTCAAA (double strand) [PPRE] ... 8.30
AAACTAGGTCAAAGGTCACA (double strand) [PPRE A19C] ... 8.09
AAACTAGGTCAATGGTCAAA (double strand) [PPRE A13T] ... 5.60
AAACTAGGTCGAAGGTCAAA (double strand) [PPRE A11G] ... 6.74
AAACTAGGTCAAACGTCAAA (double strand) [PPRE G14C] ... 5.93

Need log10 of Ka for each of these sequences.
1. AAACAAGGTCAAAGGTCAAA (double strand) [PPRE T5A]
2. AAACTAGGACAAAGGTCAAA (double strand) [PPRE T9A]
3. AAACTAGGTCATAGGTCAAA (double strand) [PPRE A12T]

1. 7.90
2. 6.31
3. 7.64

Record log10 of Ka per entry; entries follow.
1. AAACTACGTCAAAGGTCAAA (double strand) [PPRE G7C]
2. AAACGAGGTCAAAGGTCAAA (double strand) [PPRE T5G]
3. AAACTAGGGCAAAGGTCAAA (double strand) [PPRE T9G]
4. AAACTAGGTCAAAGGTCAAG (double strand) [PPRE A20G]
5. AAACTAGGTCAACGGTCAAA (double strand) [PPRE A13C]

1: 6.82; 2: 7.99; 3: 6.96; 4: 9.00; 5: 6.02

Parameters: items (list). Returns: log10 of Ka for each item.
1. AAACTCGGTCAAAGGTCAAA (double strand) [PPRE A6C]
2. AAACTGGGTCAAAGGTCAAA (double strand) [PPRE A6G]

[6.94, 8.24]

###

Target: RXRα (UniProt P28700)
Sequence: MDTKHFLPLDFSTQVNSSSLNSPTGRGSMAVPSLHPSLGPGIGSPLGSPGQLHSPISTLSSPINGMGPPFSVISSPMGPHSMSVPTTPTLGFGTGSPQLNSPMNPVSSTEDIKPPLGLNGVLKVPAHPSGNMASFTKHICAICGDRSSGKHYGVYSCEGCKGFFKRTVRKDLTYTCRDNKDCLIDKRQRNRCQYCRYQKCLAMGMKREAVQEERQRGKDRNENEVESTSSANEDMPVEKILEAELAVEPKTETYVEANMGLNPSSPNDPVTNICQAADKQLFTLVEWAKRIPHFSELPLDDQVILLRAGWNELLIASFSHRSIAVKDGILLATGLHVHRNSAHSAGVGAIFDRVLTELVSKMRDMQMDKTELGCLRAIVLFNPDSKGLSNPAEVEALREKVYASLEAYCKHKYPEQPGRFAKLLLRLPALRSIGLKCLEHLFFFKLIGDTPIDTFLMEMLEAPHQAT
Assay: MITOMI
Details: On-chip MITOMI, 1 h equilibration; buffer, salt, pH and temperature not in the material (as ref. 23)
metric: log10 of Ka (log10 of the value in M⁻¹)
The base-10 logarithm of Ka, taken with Ka in M⁻¹, is what appears here.

Worked examples, 10 sequences total:
CAACTAGGTCAAAGGTCAAA (double strand) [PPRE A1C] ... 8.07
AAACTAGGTCACAGGTCAAA (double strand) [PPRE A12C] ... 6.90
ACACTAGGTCAAAGGTCAAA (double strand) [PPRE A2C] ... 7.64
AAACTAGGTCAAAGCTCAAA (double strand) [PPRE G15C] ... 5.34
AAACTAGGTCCAAGGTCAAA (double strand) [PPRE A11C] ... 5.57
ATACTAGGTCAAAGGTCAAA (double strand) [PPRE A2T] ... 8.16
AAACTAGGTCAAAGTTCAAA (double strand) [PPRE G15T] ... 7.65
AAACTAGGTCAAAGATCAAA (double strand) [PPRE G15A] ... 6.44
AAACTAGGTCAAGGGTCAAA (double strand) [PPRE A13G] ... 7.21
AAACTAGTTCAAAGGTCAAA (double strand) [PPRE G8T] ... 7.40

Working through the 2 sequences below one at a time, give log10 of Ka for each.
1. AAACTTGGTCAAAGGTCAAA (double strand) [PPRE A6T]
2. TAACTAGGTCAAAGGTCAAA (double strand) [PPRE A1T]

1. 6.67
2. 8.00

###

Target: RXRα (UniProt P28700)
Sequence: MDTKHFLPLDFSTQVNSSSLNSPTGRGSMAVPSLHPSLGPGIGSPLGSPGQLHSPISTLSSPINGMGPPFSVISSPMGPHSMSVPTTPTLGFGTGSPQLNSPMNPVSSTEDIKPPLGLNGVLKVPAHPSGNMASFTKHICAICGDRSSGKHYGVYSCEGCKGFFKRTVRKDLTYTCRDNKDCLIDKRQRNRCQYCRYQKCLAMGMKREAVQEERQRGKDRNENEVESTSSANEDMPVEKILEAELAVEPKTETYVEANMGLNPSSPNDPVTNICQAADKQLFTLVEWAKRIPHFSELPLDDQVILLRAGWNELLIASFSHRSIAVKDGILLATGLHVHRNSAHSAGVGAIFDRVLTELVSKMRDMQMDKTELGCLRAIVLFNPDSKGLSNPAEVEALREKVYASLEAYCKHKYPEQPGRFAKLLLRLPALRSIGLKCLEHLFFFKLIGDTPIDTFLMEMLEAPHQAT
Assay: MITOMI
Conditions: On-chip MITOMI, 1 h equilibration; buffer, salt, pH and temperature not in the material (as ref. 23)
metric: log10 Ka (log10 of the value in M⁻¹)
Reminder: these figures are log10 of reported Ka, in M⁻¹ before transformation.

Illustrative cases are given below, each with its answer.
AAACTATGTCAAAGGTCAAA (double strand) [PPRE G7T] ... 6.99
AAACTAGGTCAAAGGGCAAA (double strand) [PPRE T16G] ... 7.12
AAACTAGGTCAAAGGTCATA (double strand) [PPRE A19T] ... 7.58

Respectfully, I request log10 Ka for each entry included below.
1. AAACTAGGTCAGAGGTCAAA (double strand) [PPRE A12G]
2. AAACTAGGTTAAAGGTCAAA (double strand) [PPRE C10T]

1: 7.43; 2: 7.23

###

Target: RXRα (UniProt P28700)
Sequence: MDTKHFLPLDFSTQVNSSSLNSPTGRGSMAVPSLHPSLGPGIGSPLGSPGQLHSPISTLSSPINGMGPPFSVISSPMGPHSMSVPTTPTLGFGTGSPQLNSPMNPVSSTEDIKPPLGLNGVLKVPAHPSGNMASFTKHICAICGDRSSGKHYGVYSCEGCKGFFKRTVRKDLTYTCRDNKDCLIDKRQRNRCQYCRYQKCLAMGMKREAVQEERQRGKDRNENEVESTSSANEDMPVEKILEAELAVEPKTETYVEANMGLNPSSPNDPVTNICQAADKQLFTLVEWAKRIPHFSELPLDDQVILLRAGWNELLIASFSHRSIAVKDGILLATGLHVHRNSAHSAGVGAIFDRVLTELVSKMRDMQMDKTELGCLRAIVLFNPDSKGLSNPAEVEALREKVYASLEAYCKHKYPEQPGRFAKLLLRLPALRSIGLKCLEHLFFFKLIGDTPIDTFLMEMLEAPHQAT
Experiment: MITOMI
Conditions: On-chip MITOMI, 1 h equilibration; buffer, salt, pH and temperature not in the material (as ref. 23)
Please go through the items and note down their Ka.
Give bare numbers, in M⁻¹.

Past entries and their recorded results:
AACCTAGGTCAAAGGTCAAA (double strand) [PPRE A3C] ... 1.25e+08
AATCTAGGTCAAAGGTCAAA (double strand) [PPRE A3T] ... 1.98e+08
AAGCTAGGTCAAAGGTCAAA (double strand) [PPRE A3G] ... 5.27e+07

Shifting focus to the sequence that follows.
State the recorded Ka for this entry: AAAGTAGGTCAAAGGTCAAA (double strand) [PPRE C4G]
1.38e+08

Attribution: paper PMC4858977
